# credit: patent US20070219214A1

study_system: human NK2-receptor (Homo sapiens, UniProt P21452)
Sequence (P21452 whole entry): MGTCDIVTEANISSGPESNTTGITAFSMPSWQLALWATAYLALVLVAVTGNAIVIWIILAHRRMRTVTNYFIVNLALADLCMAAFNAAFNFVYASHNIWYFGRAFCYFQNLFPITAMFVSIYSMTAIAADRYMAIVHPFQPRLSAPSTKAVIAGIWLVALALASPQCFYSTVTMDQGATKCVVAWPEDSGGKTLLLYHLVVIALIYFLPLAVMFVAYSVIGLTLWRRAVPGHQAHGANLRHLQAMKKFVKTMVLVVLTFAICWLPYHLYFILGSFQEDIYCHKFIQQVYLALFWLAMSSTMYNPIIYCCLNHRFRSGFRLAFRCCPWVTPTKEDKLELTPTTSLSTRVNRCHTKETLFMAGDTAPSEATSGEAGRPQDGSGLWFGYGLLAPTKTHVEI
assay_notes: Binding potency of the test substances to NK2-receptors in vitro ([3H]-SR 48968 displacement)
Design: expressed in transfected cells; host or cells: CHO cells (membrane preparation)
particulars: human NK2-receptor in CHO cell membranes, [3H]-SR 48968 (saredutant); average of at least three measurements; read-out: pKi, binding potency to NK2-receptors (converted)
I'd be grateful if you could share measured Ki for these entries.
Give bare numbers, in nM.

{"columns": ["molecule", "Ki / nM"],
 "data": [
  ["CN(C)C(=O)C1(N2CCCCC2)CCN(CCC(CN(C)C(=O)c2ccc(Cl)c(Cl)c2)c2ccc(Cl)c(Cl)c2)CC1 (stereo not shown)", 12.6],
  ["CN(C[C@@H](CCN1CCC(C(=O)N2CCCC2)(N2CCCC2)CC1)c1ccc(Cl)c(Cl)c1)C(=O)c1ccccc1", 2],
  ["CN(C)C(=O)C1(N2CCCCC2)CCN(CCC(CN(C)C(=O)Cc2c[nH]c3ccccc23)c2ccc(Cl)c(Cl)c2)CC1 (stereo not shown)", 12.6]
]}

The record that follows has no Ki shown yet.
Q. If you can, please state the reported Ki value of CCC(=O)N(C1CCCCC1)C1CCN(CC[C@H](CN(C)C(=O)c2ccccc2)c2ccc(Cl)c(Cl)c2)CC1 .
A. 5.01
